Where these numbers come from: PubChem BioAssay AID504652

- TEST SYSTEM: D(1A) dopamine receptor (Homo sapiens) (UniProt P21728)
- Sequence (P21728 whole entry, looked up): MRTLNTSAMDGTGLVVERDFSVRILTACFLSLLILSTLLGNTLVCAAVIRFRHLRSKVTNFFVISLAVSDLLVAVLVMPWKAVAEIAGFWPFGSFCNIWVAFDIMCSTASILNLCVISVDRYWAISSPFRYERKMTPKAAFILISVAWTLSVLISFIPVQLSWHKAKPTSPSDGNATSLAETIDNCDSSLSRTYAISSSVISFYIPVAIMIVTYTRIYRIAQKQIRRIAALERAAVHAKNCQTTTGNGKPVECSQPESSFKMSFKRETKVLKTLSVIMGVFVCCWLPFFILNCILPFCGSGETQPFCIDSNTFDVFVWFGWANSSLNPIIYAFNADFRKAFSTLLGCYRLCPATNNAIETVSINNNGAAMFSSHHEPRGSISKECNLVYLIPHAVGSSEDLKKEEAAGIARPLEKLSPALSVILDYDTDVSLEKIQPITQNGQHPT
- MEASUREMENT PROTOCOL: Antagonist of Human D 1 Dopamine Receptor: qHTS; also: % is scaled to controls: 0 for no effect and ±100 for the full control effect
- DETAILS: HEK293 TREx D1 cells, calcium flux, dopamine EC80; at 10 µM; stronger effect = lower value
Out of some 360,000 compounds screened, about 11,000 (3.1%) were called active. Shown is part of a subset that was picked to be rich in actives.
Measured activity change, negative = inhibition of individual entries
Value expressed in %; do not type the unit.

Below are worked cases with known answers.
Cc1cc(C)cc(NC(=O)CCS(=O)(=O)c2cc3c4c(c2)CCN4C(=O)CC3)c1 | 20.6
N#CN1CCC(NC(=O)c2ccc(F)cc2)CC1 | -14.9

// next item, activity change, negative = inhibition requested
Give the measured activity change, negative = inhibition of COc1ccc(N(C)C(=O)C2CCN(S(=O)(=O)c3cc(Br)cc4c3N(C(C)=O)CC4)CC2)cc1 .
6.85

###

- TEST SYSTEM: D(1A) dopamine receptor (Homo sapiens) (UniProt P21728)
- MEASUREMENT PROTOCOL: Antagonist of Human D 1 Dopamine Receptor: qHTS; also: % is scaled to controls: 0 for no effect and ±100 for the full control effect
- DETAILS: HEK293 TREx D1 cells, calcium flux, dopamine EC80; at 10 µM; stronger effect = lower value
- Protocol: Dopamine receptors (DARs) are involved in the etiology and/or therapy of a number of neuropsychiatric and endocrine disorders. […] Freshly passaged cells are plated in 1536 well black, clear bottom plates at a density of 4000 cells/well in 3 ul of complete media containing 1x tetracycline inducer. […] Agonist read: A 10 cycle (1 second/cycle) baseline measurement is taken and then the FDSS online 1536 pintool delivers 23 nl of compound library (as well as dopamine controls) to the plate. […]
Screen size: about 360,000 compounds; about 11,000 (3.1%) were called active. For the sample, actives were picked, then their nearest neighbours and some compounds at random.
ENDPOINT LABEL: activity change, negative = inhibition

Solved entries:
O=C(CSc1oc(-c2ccccc2)nc1S(=O)(=O)c1ccc(Br)cc1)NC1CCCCC1 | 8.79% (inactive)
COc1ccccc1OCc1ccc(C(=O)NC(C)c2ccccc2)o1 (stereo unspecified) | 10.5% (inactive)
OCc1ccc(OCCCOc2cccc3cccnc23)cc1 | -4.17% (inactive)
O=C(CNC(=O)c1ccc(Cl)c(C(F)(F)F)c1)OC(C(=O)Nc1cc(C(F)(F)F)ccc1Cl)c1ccccc1 (stereo unspecified) | 7.72% (inactive)
CCOc1ccc(Nc2nc3c(S(=O)(=O)c4cccc(Cl)c4)nnn3c3ccsc23)cc1 | -38.1% (active)

Please examine the following record next.
Fill in: activity change, negative = inhibition of COc1ccccc1CN(C)C(=O)C1(c2ccc(Cl)cc2)CC1 is ___
-0.3% (inactive)

###

- TEST SYSTEM: D(1A) dopamine receptor (Homo sapiens) (UniProt P21728)
- MEASUREMENT PROTOCOL: Antagonist of Human D 1 Dopamine Receptor: qHTS; also: % is scaled to controls: 0 for no effect and ±100 for the full control effect
- DETAILS: HEK293 TREx D1 cells, calcium flux, dopamine EC80; at 10 µM; stronger effect = lower value
About 11,000 (3.1%) of roughly 360,000 compounds were called active. This excerpt belongs to a sample that is enriched for actives.
activity change, negative = inhibition listing for selected molecules.
Express it in %; write the number only.

COc1ccc(OC)c(NC(=O)CSC2=Nc3ccccc3C3=NC(CC(=O)NCc4ccc(F)cc4)C(=O)N23)c1 (centres undefined) | 2.28
O=C(Nc1ccccc1F)c1ccccc1-c1ccc(C(F)(F)F)cc1 | -10
COc1cccc(COC(=O)C2CCN(S(=O)(=O)c3ccc(Cl)cc3)CC2)c1OC | -32.8

Tell me the measured activity change, negative = inhibition of Cc1ccccc1C(=O)Nc1cc(C)c(O)c(-c2nc3ccccc3o2)c1 , please.
5.18
